Measured values drawn from patent US10703764B2 for this set.

pIC50 for assorted compounds
Target: BRD4 BD2 (Homo sapiens, UniProt O60885)
Experiment: AlphaScreen binding assay, BRD4 Bromodomain 2
pIC50: −log10 of the molar value.

Use the examples below as a reference point.
compound	observed-measurement
CC(=O)N1c2ccc(-c3cnn(C4CC4)c3)cc2N(C(=O)Oc2ccc(C)cc2C)C[C@@H]1C [Example I-516]	6.30 to 7.30
CC(=O)N1c2ccc(-c3cnn(C(C)(C)CO)c3)cc2N(C(=O)Oc2cccnc2)C[C@@H]1C [Example I-1284]	6.30 to 7.30
CC(=O)N1c2ccc(-c3ccc(NC(N)=O)cc3)cc2N(C(=O)c2ccco2)C[C@@H]1C [Example I-280]	> 7.30

Please look at the following compound next.
Input: What does the record list as pIC50 for CC(=O)N1c2ccc(-c3cnn(Cc4ccncc4)c3)cc2N(C(=O)C2CC2)C[C@@H]1C [Example I-118] ?
Output: 6.30 to 7.30

---

Target: BRD4 BD1 (Homo sapiens, UniProt O60885)
Experiment: AlphaScreen binding assay, BRD4 Bromodomain 1
readout-name: IC50

compound-structure-string	tested-system	IC50
CC(=O)N1c2ccc(-c3cnn(CCC#N)c3)cc2N(C(=O)Oc2ccc(F)cc2)C[C@@H]1C	BRD4 BD1 (Homo sapiens, UniProt O60885)	< 100 nM
CCOC(=O)N1C[C@H](C)N(C(C)=O)c2ccc(-c3cccc(S(=O)(=O)NCCO)c3)cc21	BRD4 BD1 (Homo sapiens, UniProt O60885)	1000 to 10000 nM
CC(=O)N1c2ccc(-c3cccc(S(C)(=O)=O)c3)cc2N(C(=O)c2ccco2)C[C@@H]1C	BRD4 BD1 (Homo sapiens, UniProt O60885)	1000 to 10000 nM

Input: What does the record list as IC50 for CC(=O)N1c2ccc(-c3cccc(C(N)=O)c3)cc2N(C(=O)c2ccco2)C[C@@H]1C ?
Output: 1000 to 10000 nM

Input: Also, CC(=O)N1c2cc(NS(C)(=O)=O)ccc2N(C(=O)OC(C)C)C[C@@H]1C please.
Output: > 10000 nM

Input: Also, CC(=O)N1c2ccc(-c3cnn(CCN4CCCS4(=O)=O)c3)cc2N(C(=O)OC(C)C)C[C@@H]1C please.
Output: 100 to 1000 nM

Input: Also, CC(=O)N1c2ccc(-c3ccc(S(=O)(=O)n4cccn4)cc3)cc2N(C(=O)OC2CCCCC2)C[C@@H]1C please.
Output: 100 to 1000 nM

---

Target: BRD4 BD1 (Homo sapiens, UniProt O60885)
Assay: AlphaScreen binding assay, BRD4 Bromodomain 1
pIC50: −log10 of the molar value.
readout-name: pIC50

compound	tested-system	pIC50
CC(=O)N1c2ccc(-c3ccc4[nH]ccc4n3)cc2N(C(=O)c2ccco2)CC1C (stereo not drawn) [Example I-397]	BRD4 BD1 (Homo sapiens, UniProt O60885)	5.00 to 6.00
CCOC(=O)N1C[C@H](C)N(C(C)=O)c2ccc(-c3cnn(C4CC4)c3)cc21 [Example I-21]	BRD4 BD1 (Homo sapiens, UniProt O60885)	6.00 to 7.00
CC(=O)N1c2ccc(-c3ccc(S(C)(=O)=O)cc3)cc2N(c2ccccn2)C[C@@H]1C [Example I-47]	BRD4 BD1 (Homo sapiens, UniProt O60885)	5.00 to 6.00
CC(=O)N1c2ccccc2N(C(=O)c2ccccc2)C[C@@H]1C [Example I-694]	BRD4 BD1 (Homo sapiens, UniProt O60885)	< 5.00
CC(=O)N1c2ccccc2N(Cc2ccc(C(F)(F)F)nc2)C[C@@H]1C [Example I-911]	BRD4 BD1 (Homo sapiens, UniProt O60885)	< 5.00
CCS(=O)(=O)c1cccc(-c2ccc3c(c2)N(C(=O)C2CCC2)C[C@H](C)N3C(C)=O)c1 [Example I-1091]	BRD4 BD1 (Homo sapiens, UniProt O60885)	5.00 to 6.00
CNC(=O)N1c2ncc(-c3cnn(C4CC4)c3)cc2N(C(=O)OC(C)C)C[C@@H]1C [Example I-194]	BRD4 BD1 (Homo sapiens, UniProt O60885)	5.00 to 6.00
CC(=O)N1c2ccccc2N(Cc2ccc(C)cc2)C[C@@H]1C [Example I-895]	BRD4 BD1 (Homo sapiens, UniProt O60885)	< 5.00

Input: Provide value of pIC50 for this record tested with BRD4 BD1 (Homo sapiens, UniProt O60885): COc1ccc(OC(=O)N2C[C@H](C)N(C(C)=O)c3ccc(-c4cnn(C5CC5)c4)cc32)c(Cl)c1 [Example I-505]
Output: 5.00 to 6.00

Input: Also, CC(=O)N1c2ccc(-c3cnn(C4CNC4)c3)cc2N(C(=O)C2CC2)C[C@@H]1C [Example I-360] please.
Output: > 7.00

Input: Also, CC(=O)N1c2ccc(-c3cnc(N)cn3)cc2N(C(=O)OC(C)C)C[C@@H]1C [Example I-471] please.
Output: 6.00 to 7.00

Input: Also, COc1ccc(-c2ccc3c(c2)N(C(=O)C2CCC2)C[C@H](C)N3C(C)=O)cc1N1CCCS1(=O)=O [Example I-1168] please.
Output: 6.00 to 7.00

Input: Also, CC(=O)N1c2ccc(-c3cccc(S(=O)(=O)C4CC4)c3)cc2N(C(=O)C2CCC2)C[C@@H]1C [Example I-1087] please.
Output: 5.00 to 6.00

Input: Also, CC(=O)N1c2ccc(-c3cnn(CC4(C)COC4)c3)cc2N(C(=O)C2CC2)C[C@@H]1C [Example I-124] please.
Output: 5.00 to 6.00

Input: Also, CC(=O)N1c2ccc(-c3ccc4c(c3)CCN4S(C)(=O)=O)cc2N(C(=O)Oc2ccccn2)C[C@@H]1C [Example I-1328] please.
Output: 6.00 to 7.00

Input: Also, CC(=O)N1c2ccc(-c3ccc(C)s3)cc2N(C(=O)c2ccco2)C[C@@H]1C [Example I-872] please.
Output: 6.00 to 7.00

Input: Also, CC(=O)N1c2ccc(-c3ccc(-n4cccn4)c(F)c3)cc2N(C(=O)c2ccco2)C[C@@H]1C [Example I-814] please.
Output: 5.00 to 6.00

Input: Also, CC(=O)N1c2ccccc2N(C(=O)c2ccccc2Oc2ccccc2)C[C@@H]1C [Example I-744] please.
Output: < 5.00

---

IC50 for assorted molecules
Target: BRD4 BD1 (Homo sapiens)
Experiment: AlphaScreen binding assay, BRD4 Bromodomain 1
Protocol: The binding of Example compounds to BRD4 Bromodomain 1 and BRD4 Bromodomain 2 was assessed using 384-well AlphaScreen assay technology. His-epitope tagged BRD4 BD144-168 and BRD4 BD2333-460 were cloned, expressed, and purified to homogeneity. BRD4 BD1 and BRD4 BD2 binding and inhibition was assessed by monitoring the engagement of biotinylated Histone H4 (1-21) K5/8/12/16 tetra-acetylated peptide with the targets using the AlphaScreen technology (PerkinElmer). […]

Input: What does the record list as IC50 for COC(=O)N1c2ccc(-c3cnn(CCC#N)c3)cc2N(C(=O)Oc2ccccn2)C[C@@H]1C ?
Output: 1 to 10 µM

Input: Also, CCOC(=O)N1C[C@H](C)N(C(C)=O)c2ccc(-c3ccc(S(=O)(=O)NC(C)(C)C)cc3)cc21 please.
Output: 1 to 10 µM

Input: Also, CC(=O)N1c2ccc(-c3cnn(Cc4ncccn4)c3)cc2N(C(=O)C2CC2)C[C@@H]1C please.
Output: 1 to 10 µM

Input: Also, COC(=O)N1CCN(C(=O)c2ccc(-c3ccc4c(c3)N(C(=O)OC(C)C)C[C@H](C)N4C(C)=O)cc2)CC1 please.
Output: 0.1 to 1 µM

---

IC50 for assorted compounds
Biological target: BRD4 BD1 (Homo sapiens, UniProt O60885)
Construct: made in house
Assay: AlphaScreen binding assay, BRD4 Bromodomain 1

Use the examples below as a reference point.
compound-structure-string	readout-name	observed-measurement
CC(=O)N1c2ccc(-c3ccc(S(N)(=O)=O)cc3)cc2N(C(=O)OC2CCOCC2)C[C@@H]1C	IC50	100 to 1000 nM
CC(=O)N1c2ccc(-c3cn(S(=O)(=O)N(C)C)cn3)cc2N(C(=O)c2ccco2)C[C@@H]1C	IC50	100 to 1000 nM
CC(=O)N1c2ccc(-c3ccc(S(N)(=O)=O)cc3)cc2N(C(=O)c2ccco2)C[C@@H]1C	IC50	1000 to 10000 nM

Input: What does the record list as IC50 for CC(=O)N1c2ccc(-c3ccc(C(=O)NCCN)cc3)cc2N(C(=O)C2CC2)C[C@@H]1C ?
Output: 100 to 1000 nM

---

Biological target: BRD4 BD1 (Homo sapiens)
Experiment: AlphaScreen binding assay, BRD4 Bromodomain 1
Procedure: The binding of Example compounds to BRD4 Bromodomain 1 and BRD4 Bromodomain 2 was assessed using 384-well AlphaScreen assay technology. His-epitope tagged BRD4 BD144-168 and BRD4 BD2333-460 were cloned, expressed, and purified to homogeneity. BRD4 BD1 and BRD4 BD2 binding and inhibition was assessed by monitoring the engagement of biotinylated Histone H4 (1-21) K5/8/12/16 tetra-acetylated peptide with the targets using the AlphaScreen technology (PerkinElmer). […]
IC50 for assorted compounds

Use the examples below as a reference point.
compound-structure-string	tested-system	IC50
CC(=O)N1c2ccc(-c3cnn(CC(=O)N(C)C4CC4)c3)cc2N(C(=O)OC(C)C)C[C@@H]1C	BRD4 BD1 (Homo sapiens)	0.1 to 1 µM
CCOC(=O)N1C[C@H](C)N(C(C)=O)c2ccc(-c3cccc(NS(=O)(=O)N(C)C)c3)cc21	BRD4 BD1 (Homo sapiens)	1 to 10 µM
CC(=O)N1c2ccc(-c3ccc(S(C)(=O)=O)cc3)cc2N(C(=O)Oc2cccc3ccccc23)C[C@@H]1C	BRD4 BD1 (Homo sapiens)	1 to 10 µM

Input: What does the record list as IC50 for CC(=O)N1c2ccccc2N(Cc2cncn2C)C[C@@H]1C ?
Output: > 10 µM

Input: Also, CCOC(=O)N1C[C@H](C)N(C(C)=O)c2ccc(-c3ccc(S(=O)(=O)C(C)C)cc3)cc21 please.
Output: 1 to 10 µM

Input: Also, C[C@H]1CN(C(=O)C2CC2)c2cc(-c3ccc(CS(N)(=O)=O)cc3)ccc2N1C(=O)C1CC1 please.
Output: 0.1 to 1 µM

Input: Also, CC(C)OC(=O)N1C[C@H](C)N(C(=O)C2CC2)c2ccc(-c3cnn(CCN(C)C)c3)cc21 please.
Output: 1 to 10 µM
